readout.label: melting point

Check out these entries, answers already filled in.
Cc1cc2n(n1)-c1ccc(Cl)cc1C(c1ccccc1)NC2=O (stereo unspecified) = 258 to 261 °C
O=C(O)CC1CCC(N2CCC(CNc3ccncc3)CC2)CC1 (stereo unspecified) = 260 °C
Clc1ccc2nc(Cl)c(-c3ccccc3)cc2c1 = 147 to 149 °C
O=C1Nc2cccnc2N(C(=O)CN2CCCCC2CN2CCOCC2)c2ccccc21 (stereo unspecified) = 203 to 205 °C
N#Cc1c(Br)cc(Br)c(CCC(=O)O)c1Br = 164 to 166 °C

// each molecule listed below needs its melting point
1. C#CC1(Oc2ccc(F)cc2[N+](=O)[O-])CCN(C(=O)OCC)CC1
2. COC(=O)CCC(=O)c1ccc(N2CCOCC2)cc1
3. O=P(O)(O)OC(Cn1cncn1)(Cn1cncn1)c1ccc(F)cc1F
4. CC(=O)OC1CCC(n2cnc3cc(Cl)c(Cl)cc32)C1OC(C)=O (stereo unspecified)

1: 56 to 68 °C; 2: 120 to 121 °C; 3: 223 to 224 °C; 4: 95 to 97 °C

// each molecule listed below needs its melting point
1. COc1ccccc1-n1c(-c2cc(-c3ccc(Cl)cc3)c(N3CCOCC3)s2)nc2ccccc2c1=O
2. O=C(Nc1cccc([N+](=O)[O-])c1)C(=O)N1CCC(Cc2ccc(F)cc2)CC1
3. O=P(O)(O)Cc1cccc(C(F)(F)F)c1
4. O=c1oc(-c2ccccc2)cc(O)c1C(SC1CCCCC1)c1ccccc1 (stereo unspecified)
5. COC(=O)c1ccc(Br)c(O)c1

216 to 217 °C
135 to 138 °C
163 to 164 °C
189 to 191 °C
130 to 132 °C

// each molecule listed below needs its melting point
1. COc1ccc(CCNC(=O)C(F)(F)F)cc1S(=O)(=O)Cl
2. CCS(=O)(=O)c1cc2c(c(C(=O)O)c1)OCCO2

1. 96 to 98 °C
2. 217 to 218 °C

// each molecule listed below needs its melting point
1. Cc1ccc(-c2c(-c3ccc(S(C)(=O)=O)cc3)cnn(CC(F)(F)F)c2=O)cc1
2. Cc1nc(-c2ccccc2)nc(-c2ccncc2)c1C(=O)O
3. N=c1cc(NC(=S)NCc2ccccc2)nc2n1CCCS2

1: 154 to 156 °C; 2: 270 to 271 °C; 3: 189 to 190 °C

// each molecule listed below needs its melting point
1. CCOC(=O)C=C(c1ccc(I)cc1)c1ccc(I)cc1
2. COc1cc(Nc2nccc(Nc3cccc(CCO)c3)n2)cc(OC)c1OC
3. CC1(C)CCC(C)(C)c2cc(O)c(N)cc21
4. CCOc1cc(CCCOc2c(C)cc(-c3noc(C4CC4)n3)cc2C)on1
5. COc1cc2c(cc1Cl)C(Cl)(c1ccccc1Cl)C(=O)N2 (stereo unspecified)
6. CC1CCCC(C)N1Cc1ccc2cc(NC(=O)c3ccc(-c4ccc(F)cc4)cc3)ccc2n1 (stereo unspecified)
7. COc1ccc(-c2cc(=O)n(CC=Cc3ccc(F)cc3F)nc2-c2ccc(OC)cc2)cc1
8. CC(=NOCCOc1ccc(CC2SC(=O)NC2=O)cc1)c1ccc(-c2ccc(C(F)(F)F)cc2)cc1 (stereo unspecified)

95 to 100 °C
72 °C
225 °C
70 to 71 °C
237 to 240 °C
187 to 188 °C
107 to 108 °C
165 to 166 °C

// each molecule listed below needs its melting point
1. COc1cc([N+](=O)[O-])c2nccc(C)c2c1OCCCc1ccccc1
2. CC(C)Oc1nn(CCO)cc1C(=O)NCc1ccc(C(F)(F)F)cc1
3. COc1ccc(C(=O)c2ccccn2)cc1OC
4. CCCCCCS(=O)(=O)Oc1c(I)cc(I)cc1I
5. CN(C)Cc1nc(-c2ncn3c2[C@@H]2CCN2C(=O)c2c-3ccc(F)c2Cl)no1
6. CC(C)N1C(=O)[C@@H](CCO)O[C@H](c2ccccc2Cl)c2cc(Cl)ccc21 (relative stereo)
7. Cc1ccc(Cn2nc(CCl)cc2-c2ccc(Cl)c(Cl)c2)cc1Cl
8. O=C1CCOc2c1ccc1c2OC(CN2CC=C(c3c[nH]c4ccccc34)CC2)CO1 (stereo unspecified)

["100 to 102 °C", "107 to 108 °C", "91.5 to 93 °C", "70 to 71 °C", "166 to 169 °C", "188 to 189 °C", "88 °C", "210 °C"]

// each molecule listed below needs its melting point
1. COc1cc(C)nc(NC(=S)NS(=O)(=O)c2ccccc2Cl)n1
2. CCOc1ccc(CCN(C(=O)O)C(=O)[C@H](CCSC)NC(C)=O)cc1OCC
3. CC1CCCN(C(=O)c2nc(-c3ccccc3)nc3ccccc23)C1 (stereo unspecified)

1. 186 to 188 °C
2. 85 to 90 °C
3. 116 °C

// each molecule listed below needs its melting point
1. Cc1cc2c(Cl)c3ccccc3c(C=O)c2cc1C
2. CC(C)(C)c1cc(C(=O)NC2CCCCC2)cc(C(C)(C)C)c1O
3. N=C(NO)c1cnc(N)nc1

1. 150 to 153 °C
2. 236 to 237 °C
3. 218 °C

====

readout.label: melting point

Check out these entries, answers already filled in.
c1ccc(Oc2cccc(Nc3nnc(Cc4ccncc4)c4ccccc34)c2)cc1 = 186 to 189 °C
c1ccc2c(c1)ncc1nc(C3CCCC3)[nH]c12 = 192 °C
C=CCOc1cc(C(=O)OCC)nc2c(CCC)c3oc(C(=O)OCC)cc(=O)c3cc12 = 151 to 153 °C

// each molecule listed below needs its melting point
1. CN(C)CCNC(=O)N1CCN(c2ccc(C(N)=O)cc2)CC1
2. CCOC(=O)[C@H](O)[C@@H](NC(=O)OC(C)(C)C)c1ccccc1
3. COC(=O)C(C)(C)CCCOc1cc(C)c(OC(=O)Nc2c(C(C)C)cccc2C(C)C)cc1C
4. Nc1ncc2cc(-c3c(Br)cccc3Br)c(N)nc2n1

193 to 195 °C
102 °C
111 to 112 °C
284 to 289 °C

// each molecule listed below needs its melting point
1. CCCCc1nc(C(O)(CC)CC)c(C(=O)O)n1Cc1ccc(-c2ccccc2-c2nnn[nH]2)cc1
2. CC(C)C[C@H](NC(=O)c1cccc2c1Nc1ccccc1S2)C(=O)N[C@H]1CCOC1O (stereo not given in full)
3. CCCNC(=O)C1(O)CC(O)C2OC(C)(C)OC2C1 (stereo not given)

["181 to 183 °C", "99 to 101 °C", "85 to 86 °C"]

====

readout.label: melting point

Check out these entries, answers already filled in.
CCCS(=O)(=O)c1cc(C(=O)NCC2CCCN2CC)c(OC)cc1N (stereo unspecified) = 105 to 106 °C
Oc1ccc2c(-c3ccc(Cl)cc3)noc2c1 = 203 °C
CCN(CCc1c[nH]c2ccc(F)cc12)C1COc2c(F)ccc(C(N)=O)c2C1 (stereo unspecified) = 127 °C
CC(CCCC(C)(C)C)C1CCC2C3C(=O)C=C4CC(O)CCC4(C)C3CCC12C (stereo unspecified) = 176 to 178 °C

// each compound listed below needs its melting point
1. CC1(c2ccccc2)OC(C=Cc2ccccn2)=CC1=O (stereo unspecified)
2. CCOC(=O)C1=Cc2cc(Cl)c(Oc3ccc(CC)cc3)cc2OC1C(F)(F)F (stereo unspecified)
3. CON(C)C(=O)C1(C)CCc2c(C)c(O)c(C)c(C)c2O1 (stereo unspecified)
4. COC(=O)c1cc(-c2ccccc2)c(=O)n2c1-c1sc(Br)cc1CC2
5. CCCCCCCCCCCCCCCCCCNC(=O)C(N)=O

["74.5 to 76 °C", "109 to 110 °C", "139 to 140 °C", "170 to 171 °C", "169 °C"]

====

Would you kindly list melting point for each of these molecules?

// each molecule listed below needs its melting point
1. CCOC(=O)C1=C(C)NN=C(CC)C1c1ccccc1Cl (stereo unspecified)
2. NC(=O)C1Oc2cc(Cl)c(S(=O)(=O)c3ccc(Cl)cc3)cc2O1 (stereo unspecified)
3. CSc1cc(C)c2ccc(N)nc2n1
4. Cc1ccc2c(c1)Cn1nnnc1C(=O)N2

["112 °C", "240 to 242 °C", "204 to 209 °C", "244 to 247 °C"]

====

Would you kindly list melting point for each of these compounds?

Check out these entries, answers already filled in.
CCOC(=O)c1ncn2c1c(=O)n(CC)c1ncccc12 = 216 to 217 °C
c1nc(Nc2ccc3[nH]ccc3c2)c2sc(-c3ccc(CN4CCOCC4)cc3)cc2n1 = 141 to 152 °C
O=C1CNC=Nc2[nH]cnc21 = 260 °C

// each compound listed below needs its melting point
1. O=C(Nc1ccc(-c2cnc(-c3cccc(NC(=O)c4ccccn4)c3)[nH]2)cc1)c1ccccn1
2. Cc1nnc(-c2ccc(F)cc2)n2nc(OCc3ncnn3C)c(-c3ccsc3)c12
3. Cc1cn(C(C)(C)C(=O)N(C)C)nc1-c1ccco1

205 to 208 °C
171 to 177 °C
131 to 134 °C
